Measured on: xanthine dehydrogenase/oxidase (Bos taurus)
Sequence (P80457 whole entry): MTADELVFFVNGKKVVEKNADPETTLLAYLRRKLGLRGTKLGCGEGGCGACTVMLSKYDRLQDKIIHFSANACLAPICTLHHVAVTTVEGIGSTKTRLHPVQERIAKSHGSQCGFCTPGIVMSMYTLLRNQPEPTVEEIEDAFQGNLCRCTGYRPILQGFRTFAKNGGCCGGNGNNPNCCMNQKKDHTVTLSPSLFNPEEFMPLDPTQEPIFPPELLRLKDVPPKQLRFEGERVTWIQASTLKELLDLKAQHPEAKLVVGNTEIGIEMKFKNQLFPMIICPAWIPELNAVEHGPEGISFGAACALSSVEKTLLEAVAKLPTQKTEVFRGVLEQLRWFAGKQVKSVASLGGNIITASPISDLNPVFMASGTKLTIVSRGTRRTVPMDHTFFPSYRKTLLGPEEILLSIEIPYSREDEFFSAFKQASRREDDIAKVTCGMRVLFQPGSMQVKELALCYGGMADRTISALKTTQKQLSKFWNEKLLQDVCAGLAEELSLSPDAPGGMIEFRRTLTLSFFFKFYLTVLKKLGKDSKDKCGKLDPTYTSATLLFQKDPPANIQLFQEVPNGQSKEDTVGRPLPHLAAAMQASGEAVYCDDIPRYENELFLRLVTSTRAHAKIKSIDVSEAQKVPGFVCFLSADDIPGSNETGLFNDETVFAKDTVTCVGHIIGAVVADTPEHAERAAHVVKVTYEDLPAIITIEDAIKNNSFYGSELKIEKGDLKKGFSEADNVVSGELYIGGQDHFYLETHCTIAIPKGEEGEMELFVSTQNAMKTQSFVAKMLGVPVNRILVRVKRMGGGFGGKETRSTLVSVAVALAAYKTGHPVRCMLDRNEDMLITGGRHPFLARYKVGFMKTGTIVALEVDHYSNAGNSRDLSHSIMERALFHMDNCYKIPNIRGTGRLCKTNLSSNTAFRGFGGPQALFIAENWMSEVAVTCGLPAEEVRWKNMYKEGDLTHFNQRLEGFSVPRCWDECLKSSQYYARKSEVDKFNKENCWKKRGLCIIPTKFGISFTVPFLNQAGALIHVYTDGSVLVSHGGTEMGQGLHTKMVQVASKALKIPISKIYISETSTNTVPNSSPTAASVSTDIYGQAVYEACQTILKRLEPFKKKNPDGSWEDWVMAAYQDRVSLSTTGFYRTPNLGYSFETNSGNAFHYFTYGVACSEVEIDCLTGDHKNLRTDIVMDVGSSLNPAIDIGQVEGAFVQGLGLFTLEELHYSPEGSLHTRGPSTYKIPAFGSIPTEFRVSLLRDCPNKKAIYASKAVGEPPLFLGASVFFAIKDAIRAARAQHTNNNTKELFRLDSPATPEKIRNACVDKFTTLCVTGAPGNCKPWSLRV
Assay text: SUPOXXANOXID Cerep selectivity data (BI)
Set-up: mode of action inhibitor
Condition details: cattle, xanthine oxidase enzyme assay; compound concentration 20 uM; read-out: % Ctrl
Quantity: activity at 20 µM

Specify activity at 20 µM for "CN(C)C(=O)Cn1cc(-c2nc([C@@](C)(c3ccc(-c4cnc(N)nc4)cc3)C3CC3)no2)cn1" , system xanthine dehydrogenase/oxidase (Bos taurus).
85% (not active)

* * *

Measured on: L-type Ca2+ channel (diltiazem site), Cav1.2 alpha-1C (Rattus norvegicus, UniProt P22002)
Assay text: CA+/DILSI/R Cerep selectivity data (BI)
Design: mode of action inhibitor
Condition details: rat brain, probe [3H]diltiazem, compound concentration 20 uM, read-out: % Ctrl
Quantity: activity at 20 µM

Tell me measured activity at 20 µM for CN(C)C(=O)Cn1cc(-c2nc([C@@](C)(c3ccc(-c4cnc(N)nc4)cc3)C3CC3)no2)cn1 [BI 665915] please.
119% (not active)

* * *

Measured on: L-type Ca2+ channel (DHP site), Cav1.2 alpha-1C (Rattus norvegicus)
Assay text: CA+/DHPSI/RA Eurofins-Panlabs selectivity data (BI)
Condition details: compound concentration 10 uM, read-out: % Ctrl
Quantity: activity at 10 µM

Tell us which activity at 10 µM value is on record for CN(C)C(=O)Cn1cc(-c2nc([C@@](C)(c3ccc(-c4cnc(N)nc4)cc3)C3CC3)no2)cn1 [BI 665915]
98% (not active)

* * *

Measured on: L-type Ca2+ channel (diltiazem site), Cav1.2 alpha-1C (Rattus norvegicus)
Assay text: CA+/DILSI/RA Eurofins-Panlabs selectivity data (BI)
Condition details: compound concentration 10 uM, read-out: % Ctrl
Quantity: activity at 10 µM

Report activity at 10 µM, nothing else, for this compound: CN(C)C(=O)Cn1cc(-c2nc([C@@](C)(c3ccc(-c4cnc(N)nc4)cc3)C3CC3)no2)cn1 [BI 665915]
73% (not active)

* * *

Measured on: L-type Ca2+ channel (dihydropyridine site), Cav1.2 alpha-1C (Rattus norvegicus, UniProt P22002)
Sequence (P22002 whole entry): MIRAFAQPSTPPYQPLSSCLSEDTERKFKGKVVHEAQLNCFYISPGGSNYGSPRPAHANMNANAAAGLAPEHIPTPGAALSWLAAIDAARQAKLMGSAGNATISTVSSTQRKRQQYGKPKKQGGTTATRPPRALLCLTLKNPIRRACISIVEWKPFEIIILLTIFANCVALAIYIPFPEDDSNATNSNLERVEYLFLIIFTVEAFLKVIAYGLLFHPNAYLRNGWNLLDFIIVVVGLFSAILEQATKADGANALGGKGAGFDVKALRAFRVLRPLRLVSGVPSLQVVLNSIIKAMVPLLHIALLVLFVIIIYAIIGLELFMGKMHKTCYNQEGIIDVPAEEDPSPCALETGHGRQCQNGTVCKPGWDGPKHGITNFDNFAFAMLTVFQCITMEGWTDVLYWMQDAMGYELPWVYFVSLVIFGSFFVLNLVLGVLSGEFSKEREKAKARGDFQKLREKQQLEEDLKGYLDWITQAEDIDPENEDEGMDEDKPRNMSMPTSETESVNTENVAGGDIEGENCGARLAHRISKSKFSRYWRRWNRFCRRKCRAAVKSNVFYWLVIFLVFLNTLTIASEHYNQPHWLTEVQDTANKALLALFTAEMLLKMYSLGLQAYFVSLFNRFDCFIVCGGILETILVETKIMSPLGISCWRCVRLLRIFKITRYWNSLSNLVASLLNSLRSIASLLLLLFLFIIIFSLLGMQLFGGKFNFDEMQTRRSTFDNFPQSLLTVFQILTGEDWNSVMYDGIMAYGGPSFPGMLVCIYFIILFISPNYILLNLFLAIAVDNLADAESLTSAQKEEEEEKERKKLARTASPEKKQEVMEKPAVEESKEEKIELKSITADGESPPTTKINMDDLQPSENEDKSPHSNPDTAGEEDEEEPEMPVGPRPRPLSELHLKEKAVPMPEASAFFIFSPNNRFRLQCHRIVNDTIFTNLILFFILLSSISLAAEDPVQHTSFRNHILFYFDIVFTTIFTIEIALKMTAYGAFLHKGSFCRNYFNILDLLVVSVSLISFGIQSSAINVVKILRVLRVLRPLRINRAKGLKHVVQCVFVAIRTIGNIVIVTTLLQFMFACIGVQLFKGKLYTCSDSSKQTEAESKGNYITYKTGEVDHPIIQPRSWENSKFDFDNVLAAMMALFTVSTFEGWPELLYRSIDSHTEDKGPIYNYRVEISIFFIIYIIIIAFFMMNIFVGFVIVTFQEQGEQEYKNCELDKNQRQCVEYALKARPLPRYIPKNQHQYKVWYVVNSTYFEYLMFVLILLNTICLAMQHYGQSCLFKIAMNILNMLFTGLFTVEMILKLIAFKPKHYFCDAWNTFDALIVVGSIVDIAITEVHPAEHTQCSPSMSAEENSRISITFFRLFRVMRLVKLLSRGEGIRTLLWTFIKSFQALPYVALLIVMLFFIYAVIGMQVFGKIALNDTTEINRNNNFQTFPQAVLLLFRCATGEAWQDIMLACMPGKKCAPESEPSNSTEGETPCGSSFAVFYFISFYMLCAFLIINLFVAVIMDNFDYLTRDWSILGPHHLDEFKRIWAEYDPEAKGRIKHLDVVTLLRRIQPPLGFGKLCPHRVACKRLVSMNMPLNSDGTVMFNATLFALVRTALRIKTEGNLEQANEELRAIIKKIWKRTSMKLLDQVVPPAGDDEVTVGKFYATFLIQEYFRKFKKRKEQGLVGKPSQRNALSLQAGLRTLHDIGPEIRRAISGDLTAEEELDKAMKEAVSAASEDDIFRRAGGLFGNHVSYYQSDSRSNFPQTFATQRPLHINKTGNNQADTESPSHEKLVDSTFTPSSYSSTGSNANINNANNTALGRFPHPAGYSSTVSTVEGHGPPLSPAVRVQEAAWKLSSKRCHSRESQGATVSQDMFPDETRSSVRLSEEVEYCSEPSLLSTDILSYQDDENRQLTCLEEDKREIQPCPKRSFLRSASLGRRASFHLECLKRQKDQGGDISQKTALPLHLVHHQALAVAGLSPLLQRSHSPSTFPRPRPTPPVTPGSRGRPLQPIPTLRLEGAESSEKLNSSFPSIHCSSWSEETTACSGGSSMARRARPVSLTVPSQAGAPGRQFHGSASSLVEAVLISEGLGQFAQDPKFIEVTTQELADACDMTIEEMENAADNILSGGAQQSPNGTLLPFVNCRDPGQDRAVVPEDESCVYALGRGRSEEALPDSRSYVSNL
Assay text: CA+/DHPSI/R Cerep selectivity data (BI)
Set-up: mode of action inhibitor
Condition details: rat brain, probe [3H](+)PN200-110, compound concentration 20 uM, read-out: % Ctrl
Quantity: activity at 20 µM

Quote activity at 20 µM reported for CN(C)C(=O)Cn1cc(-c2nc([C@@](C)(c3ccc(-c4cnc(N)nc4)cc3)C3CC3)no2)cn1 [BI 665915] please.
85% (not active)
